Reported EC50 values for a set of molecules
Target: VDR (Homo sapiens, UniProt P11473)
Sequence (P11473 1-427): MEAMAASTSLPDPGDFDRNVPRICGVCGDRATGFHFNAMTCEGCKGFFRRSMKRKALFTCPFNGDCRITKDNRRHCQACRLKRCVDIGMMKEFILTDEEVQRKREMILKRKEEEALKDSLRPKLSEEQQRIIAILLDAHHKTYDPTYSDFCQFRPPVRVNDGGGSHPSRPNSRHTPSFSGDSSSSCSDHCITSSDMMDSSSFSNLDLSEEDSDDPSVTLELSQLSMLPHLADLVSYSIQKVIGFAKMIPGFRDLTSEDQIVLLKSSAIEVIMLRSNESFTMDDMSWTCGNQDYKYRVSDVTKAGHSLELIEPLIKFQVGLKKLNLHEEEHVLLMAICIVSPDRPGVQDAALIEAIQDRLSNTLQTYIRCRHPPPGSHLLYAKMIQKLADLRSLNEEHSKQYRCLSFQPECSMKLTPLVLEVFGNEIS
Test: VDRE-luciferase reporter assay in Jurkat cells
I only need the number, in nM, no unit after it.

QUERY: Name the recorded EC50 of the item C=C1CC[C@H](O)C/C1=C/C=C1\CCC[C@@]2(C)[C@H]1CC[C@@H]2[C@@](C)(O)CCC=C(C)C [compound 4] in your answer.
RESULT: 439

QUERY: Name the recorded EC50 of the item C=C1/C(=C\C=C2/CCC[C@@]3(C)[C@H]2CC[C@@H]3[C@@](C)(O)CCC(F)(F)C(C)C)C[C@@H](O)C[C@@H]1O [compound 24] in your answer.
RESULT: 305

QUERY: Name the recorded EC50 of the item C=C1/C(=C\C=C2/CCC[C@@]3(C)[C@H]2CC[C@@H]3[C@@](C)(O)CCC=C(C)C)C[C@@H](O)C[C@@H]1O [compound 5] in your answer.
RESULT: 237

QUERY: Name the recorded EC50 of the item C=C1/C(=C\C=C2/CCC[C@@]3(C)[C@H]2CC[C@@H]3[C@@](C)(O)CCOC(C)C)C[C@@H](O)C[C@@H]1O [compound 14] in your answer.
RESULT: 248

###

Target: VDR (Homo sapiens, UniProt P11473)
Assay: VDRE-luciferase reporter assay in Caco-2 cells
Settings: read-out: VDRE stimulation (EC50 ± SD, nM) Caco-2; Caco-2 cells, 24 h; NS: no significance
measurement.kind: EC50 (nM)
I only need the number, in nM, no unit after it.

QUERY: Name the recorded EC50 of the item C=C1/C(=C\C=C2/CCC[C@]3(C)[C@@H]([C@H](C)OCCC(C)(C)O)CC[C@@H]23)C[C@@H](O)C[C@@H]1O [22-Oxa, reference compound] in your answer.
RESULT: 42.5

###

Target: rat CYP24A1 (Rattus norvegicus)
Construct: made in house; host or cells: E. coli
Test: Kinetics of metabolism of analogs in phospholipid vesicles by rat CYP24A1
Assay type: in vitro ADME
Conditions: rat CYP24A1 0.14 µM, phospholipid vesicles, 1 min incubation; ± SE from curve fit
Km less than 8 mmol/mol PL is true; Km greater than or equal to 8 mmol/mol PL is false.

QUERY: Km under 8 mmol/mol PL? Item: C=C1CC[C@H](O)C/C1=C/C=C1\CCC[C@@]2(C)[C@H]1CC[C@@H]2[C@@](C)(O)CCC=C(C)C
RESULT: true

QUERY: Km under 8 mmol/mol PL? Item: C=C1CC[C@H](O)C/C1=C/C=C1\CCC[C@@]2(C)[C@H]1CC[C@@H]2[C@@](C)(O)CCCC(C)C [20S(OH)D3, 20S-hydroxyvitamin D3]
RESULT: false

QUERY: Km under 8 mmol/mol PL? Item: C=C1CC[C@H](O)C/C1=C/C=C1\CCC[C@@]2(C)[C@H]1CC[C@@H]2[C@@](C)(O)CCC(F)(F)C(C)C
RESULT: false

Continuing:
QUERY: Km under 8 mmol/mol PL? Item: C=C1CC[C@H](O)C/C1=C/C=C1\CCC[C@]2(C)[C@@H](C(C)(O)CC(=O)NC(C)C)CC[C@@H]12 (some centres unmarked)
RESULT: false
